assay-target: Kras and SOS1 (biotin-tagged human Kras loaded with GDP, His-tagged human SOS1) (Homo sapiens, UniProt P01116, G12D)
Construct: made in house; host or cells: E. coli (stated for Kras only)
Sequence (P01116 1-188 isoform P01116-2 G12D): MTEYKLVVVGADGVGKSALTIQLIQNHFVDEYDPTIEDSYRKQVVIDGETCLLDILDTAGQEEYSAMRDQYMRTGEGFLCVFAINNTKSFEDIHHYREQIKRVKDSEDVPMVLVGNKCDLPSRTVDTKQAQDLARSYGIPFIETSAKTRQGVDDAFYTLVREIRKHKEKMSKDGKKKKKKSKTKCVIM
assay-text: Protein-protein interaction inhibition between Kras and SOS1 (KrasGl2D-SOS PPI) using AlphaScreen
Format: binding
measurement-context: AlphaScreen; biotin-tagged human Kras loaded with GDP, His-tagged human SOS1; read-out: KRAS G12D-SOS PPI IC50
Starred links: 1 amine or outer side, 2 acyl side, 3 side chain; linkers in the order of their positions; H or OH if unused. Positions of bridges follow the written chain, without caps; N, C: chain ends. Non-standard residues stand in square brackets, D forms with d. Residues, ends and D or L forms follow the SMILES beside them. *: point of attachment. hPhe(3-Cl-4-CF3) = N[C@@H](CCc1ccc(C(F)(F)F)c(Cl)c1)C(=O)O; hPhe(3-F,4-CF3) = N[C@@H](CCc1ccc(C(F)(F)F)c(F)c1)C(=O)O; ACHC(1R,2R) = O=C([C@@H]1CCCC[C@H]1N[*:1])[*:2]; 3Oxa8azabicyclo(3.2.1)octane = C1CC2COCC1N2*; NMePhe(4-Me) = CN[C@@H](Cc1ccc(C)cc1)C(=O)O; X18 = Cc1ccc(Br)cc1C[C@H](N[*:1])C(=O)[*:2]; Leu(4,5-dehydro) = C=C(C)C[C@H](N)C(=O)O; NMeAla(cPent) = CN[C@@H](CC1CCCC1)C(=O)O; Phe(3-I) = N[C@@H](Cc1cccc(I)c1)C(=O)O; NMeAla(cPr) = CN[C@@H](CC1CC1)C(=O)O; NMeY = CN[C@@H](Cc1ccc(O)cc1)C(=O)O; NMeCha = CN[C@@H](CC1CCCCC1)C(=O)O; NMeD = CN[C@@H](CC(=O)O)C(=O)O; NMeL = CN[C@@H](CC(C)C)C(=O)O; NMeV = CN[C@H](C(=O)O)C(C)C; d(β3hA) = C[C@@H](N)CC(=O)O; NMeAbu = CC[C@H](NC)C(=O)O; NMeA = CN[C@@H](C)C(=O)O; NMeAib = CNC(C)(C)C(=O)O; Nle = CCCC[C@H](N)C(=O)O; Piperidide = C1CCN(*)CC1; Ac5c = NC1(C(=O)O)CCCC1; Aze = O=C(O)[C@@H]1CCN1; Sar = CNCC(=O)O
measured-parameter: IC50 (µM)
One number for each entry, in µM.

Example entries and their recorded answers appear below.
1. CC[C@H](C)[C@@H]1NC(=O)[C@H](CC(C)C)N(C)C(=O)C[C@@H](C(=O)N2C3CCC2COC3)N(C)C(=O)[C@H](C(C)C)N(C)C(=O)C2(CCCC2)NC(=O)[C@@H]2CCCN2C(=O)[C@H](CCc2ccc(C(F)(F)F)c(Cl)c2)NC(=O)CN(C)C(=O)[C@H](CC2CCCCC2)N(C)C(=O)[C@@H]2CCN2C(=O)[C@H](C)N(C)C1=O [Compound 1235] ([NMeL]I[NMeA][Aze][NMeCha][Sar][hPhe(3-Cl-4-CF3)]P[Ac5c][NMeV][NMeD]-{3Oxa8azabicyclo(3.2.1)octane}; lactam N-11): 0.0055
2. CC[C@H](C)[C@@H]1NC(=O)[C@H](CC(C)C)N(C)C(=O)C[C@@H](C(=O)N(C)C)N(C)C(=O)[C@H](C(C)C)N(C)C(=O)C2(CCCC2)NC(=O)[C@@H]2CCCN2C(=O)[C@H](CCc2ccc(C(F)(F)F)c(Cl)c2)NC(=O)CN(C)C(=O)[C@H](Cc2ccc(C)cc2)N(C)C(=O)CN(C)C(=O)CN(C)C1=O [Compound 1867] ([NMeL]I[Sar][Sar][NMePhe(4-Me)][Sar][hPhe(3-Cl-4-CF3)]P[Ac5c][NMeV][NMeD]-NMe2; lactam N-11): 0.00073
3. CC[C@H](C)[C@@H]1NC(=O)[C@H](CC(C)C)N(C)C(=O)C[C@@H](C)NC(=O)[C@H](C(C)C)N(C)C(=O)C2(CCCC2)NC(=O)[C@@H]2CCCN2C(=O)[C@H](CCc2ccc(C(F)(F)F)c(F)c2)NC(=O)CN(C)C(=O)[C@H](CC2CCCCC2)N(C)C(=O)CN(C)C(=O)CN(C)C1=O [Compound 1534] (cyclo([Ac5c][NMeV][d(β3hA)][NMeL]I[Sar][Sar][NMeCha][Sar][hPhe(3-F,4-CF3)]P)): 0.062
4. CC[C@H](C)[C@@H]1NC(=O)[C@H](CC(C)C)NC(=O)[C@@H]2CCCC[C@H]2NC(=O)[C@H](C(C)C)N(C)C(=O)C2(CCCC2)NC(=O)[C@@H]2CCCN2C(=O)[C@H](CCc2ccc(C(F)(F)F)c(Cl)c2)NC(=O)CN(C)C(=O)[C@H](CC2CCCCC2)N(C)C(=O)CN(C)C(=O)CN(C)C1=O [Compound 569] (cyclo([Ac5c][NMeV][ACHC(1R,2R)]LI[Sar][Sar][NMeCha][Sar][hPhe(3-Cl-4-CF3)]P)): 0.073
5. CC[C@H](C)[C@@H]1NC(=O)[C@H](CC(C)C)N(C)C(=O)C[C@@H](C(=O)N2CCCCC2)N(C)C(=O)[C@H](C(C)C)N(C)C(=O)C2(CCCC2)NC(=O)[C@@H]2CCCN2C(=O)[C@H](CCc2ccc(C(F)(F)F)c(Cl)c2)NC(=O)CN(C)C(=O)[C@H](CC2CC2)N(C)C(=O)CN(C)C(=O)CN(C)C1=O [Compound 325] ([NMeL]I[Sar][Sar][NMeAla(cPr)][Sar][hPhe(3-Cl-4-CF3)]P[Ac5c][NMeV][NMeD]-Piperidide; lactam N-11): 0.014

For each entry beneath this line, provide reported IC50.
1. CCCC[C@@H]1NC(=O)[C@H](Cc2cc(Br)ccc2C)NC(=O)CN(C)C(=O)[C@H](Cc2ccc(OC)cc2)N(C)C(=O)[C@@H]2CCN2C(=O)[C@H](C)N(C)C(=O)[C@H]([C@@H](C)CC)NC(=O)[C@H](CC)N(C)C(=O)C[C@@H](C(=O)N2CCCCC2)N(C)C(=O)[C@H](CC(C)C)NC(=O)C(C)(C)N(C)C1=O [Compound 1195] ([NMeAbu]I[NMeA][Aze][NMeY](Me)[Sar][X18][Nle][NMeAib]L[NMeD]-Piperidide; lactam N-11)
2. CCCC[C@@H]1NC(=O)[C@H](Cc2cccc(I)c2)NC(=O)CN(C)C(=O)[C@H](CC2CCCCC2)N(C)C(=O)[C@@H]2CCN2C(=O)CN(C)C(=O)[C@H]([C@@H](C)CC)NC(=O)[C@H](CC(C)C)N(C)C(=O)C[C@@H](C(=O)N2CCCCC2)N(C)C(=O)[C@H](CC(C)C)NC(=O)C(C)(C)N(C)C1=O [Compound 1420] ([NMeL]I[Sar][Aze][NMeCha][Sar][Phe(3-I)][Nle][NMeAib]L[NMeD]-Piperidide; lactam N-11)
3. C=C(C)C[C@@H]1NC(=O)[C@H](Cc2cccc(I)c2)NC(=O)CN(C)C(=O)[C@H](CC2CCCC2)N(C)C(=O)[C@@H]2CCN2C(=O)[C@H](C)N(C)C(=O)[C@H]([C@@H](C)CC)NC(=O)[C@H](CC(C)C)N(C)C(=O)C[C@@H](C(=O)N2CCCCC2)N(C)C(=O)[C@H](CC(C)C)NC(=O)C(C)(C)N(C)C1=O [Compound 1405] ([NMeL]I[NMeA][Aze][NMeAla(cPent)][Sar][Phe(3-I)][Leu(4,5-dehydro)][NMeAib]L[NMeD]-Piperidide; lactam N-11)

**Result**
1. 0.038
2. 0.089
3. 0.082

**Query** For the compound CC[C@H](C)[C@@H]1NC(=O)[C@H](CC(C)C)N(C)C(=O)C[C@@H](C(=O)N2CCCCC2)N(C)C(=O)[C@H](CC2CCCC2)N(C)C(=O)C2(CCCC2)NC(=O)[C@@H]2CCCN2C(=O)[C@H](CCc2ccc(C(F)(F)F)c(Cl)c2)NC(=O)CN(C)C(=O)[C@H](CC2CCCCC2)N(C)C(=O)CN(C)C(=O)CN(C)C1=O [Compound 30] ([NMeL]I[Sar][Sar][NMeCha][Sar][hPhe(3-Cl-4-CF3)]P[Ac5c][NMeAla(cPent)][NMeD]-Piperidide; lactam N-11) , give its reported IC50.
**Result** 0.0046
